Target: GST-Nv-NF-kB (Ser allele) (Nematostella vectensis, UniProt A7UNT2 2-411)
Sequence: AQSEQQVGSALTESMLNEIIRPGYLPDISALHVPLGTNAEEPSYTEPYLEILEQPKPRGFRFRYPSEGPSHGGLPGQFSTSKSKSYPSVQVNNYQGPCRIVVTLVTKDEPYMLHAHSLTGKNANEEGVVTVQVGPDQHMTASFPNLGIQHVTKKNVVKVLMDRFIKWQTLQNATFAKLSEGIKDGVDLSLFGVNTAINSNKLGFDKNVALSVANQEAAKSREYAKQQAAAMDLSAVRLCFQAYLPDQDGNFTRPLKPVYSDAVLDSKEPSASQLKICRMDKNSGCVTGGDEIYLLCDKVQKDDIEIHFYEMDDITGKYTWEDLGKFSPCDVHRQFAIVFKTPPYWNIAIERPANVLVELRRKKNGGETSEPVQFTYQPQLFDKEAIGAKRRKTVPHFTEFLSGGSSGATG
Experiment: protein-binding microarray (PBM); PBM: ~300 nM protein, 6 mM HEPES pH 7.8, 80 mM KCl, 0.5 mM EDTA, 0.5 mM EGTA, 6% glycerol, 35 ng/ul poly-dIdC, 1% milk, 1 h, room temperature; Ap Aiptasia and Nv Nematostella (sea anemones) / Co Capsaspora / Aq Amphimedon (sponge) / Dm Drosophila / Hu human; RHD is the Rel homology domain; high values mean tight binding
Conditions: dsDNA, one strand shown
measuredAttribute: binding signal (z-score)
Give the value in z-score but do not write z-score after it.

Data request: Name the recorded binding signal of the sequence listed here: CCGATTAACATCACAACCCCCCCTGATGTTAATCGGGTCTTGATTCGCTTGACGCTGCTG
Data returned: 4.57

Data request: Fill in binding signal for record CCGATTAACATCAACCCCCGGCTTGATGTTAATCGGGTCTTGATTCGCTTGACGCTGCTG
Data returned: 2.23

Data request: Give binding signal for CCGATTAACATCAGAAAATCACCTGATGTTAATCGGGTCTTGATTCGCTTGACGCTGCTG
Data returned: 4.87

Data request: Report binding signal for CCGATTAACATCAGGGGTTTCACTGATGTTAATCGGGTCTTGATTCGCTTGACGCTGCTG
Data returned: 2.32

Data request: Please give measured binding signal of the following entry: CCGATTAACATCAGAAGATTCCCTGATGTTAATCGGGTCTTGATTCGCTTGACGCTGCTG
Data returned: 3.95

Data request: Provide only the value of recorded binding signal for CCGATTAACATCAAGGAATACCCTGATGTTAATCGGGTCTTGATTCGCTTGACGCTGCTG
Data returned: 4.74

Data request: Tell me binding signal reported for CCGATTAACATCACCCATGGGAATGATGTTAATCGGGTCTTGATTCGCTTGACGCTGCTG
Data returned: 1.02

Data request: Note binding signal for the sequence shown: CCGATTAACATCAGGCAAATCCCTGATGTTAATCGGGTCTTGATTCGCTTGACGCTGCTG
Data returned: 1.09

Data request: Return value of binding signal for input CCGATTAACATCAGGGGAACACATGATGTTAATCGGGTCTTGATTCGCTTGACGCTGCTG , no commentary.
Data returned: 5.55

Data request: Provide only the value of recorded binding signal for CCGATTAACATCACGGAACTCCCTGATGTTAATCGGGTCTTGATTCGCTTGACGCTGCTG
Data returned: 3.15

Data request: Please supply the value of reported binding signal for the item CCGATTAACATCACGGAAAACCCTGATGTTAATCGGGTCTTGATTCGCTTGACGCTGCTG
Data returned: 1.92

Data request: Give the reported binding signal for this sequence. CCGATTAACATCAACCACCCCCCTGATGTTAATCGGGTCTTGATTCGCTTGACGCTGCTG
Data returned: 3.31

Data request: Complete the entry with binding signal for CCGATTAACATCAAAACACCCCTTGATGTTAATCGGGTCTTGATTCGCTTGACGCTGCTG
Data returned: 2.64

Data request: Output binding signal of CCGATTAACATCAGGGAATTCACTGATGTTAATCGGGTCTTGATTCGCTTGACGCTGCTG
Data returned: 4.73

Data request: Tell me measured binding signal for CCGATTAACATCAGGGACCTCCCTGATGTTAATCGGGTCTTGATTCGCTTGACGCTGCTG please.
Data returned: 1.67

Data request: Tell us which binding signal value is on record for CCGATTAACATCAAACATCCCCCTGATGTTAATCGGGTCTTGATTCGCTTGACGCTGCTG
Data returned: 6.41

Data request: For CCGATTAACATCAAGGAAACCCCTGATGTTAATCGGGTCTTGATTCGCTTGACGCTGCTG , write its binding signal.
Data returned: 3.81

Data request: Read off the recorded binding signal for CCGATTAACATCACATTGTCCCCTGATGTTAATCGGGTCTTGATTCGCTTGACGCTGCTG
Data returned: 5.06

Data request: Consider the sequence CCGATTAACATCAAAAATATTCCTGATGTTAATCGGGTCTTGATTCGCTTGACGCTGCTG . State its measured binding signal.
Data returned: 1.03

Data request: For the sequence CCGATTAACATCAGGGACAGCCCTGATGTTAATCGGGTCTTGATTCGCTTGACGCTGCTG , give its measured binding signal value.
Data returned: 2.03

Data request: Give the value of binding signal reported for the following: CCGATTAACATCAGGAAATGCCCTGATGTTAATCGGGTCTTGATTCGCTTGACGCTGCTG
Data returned: 1.15

Data request: Given the sequence CCGATTAACATCAGAAGTCCCCCTGATGTTAATCGGGTCTTGATTCGCTTGACGCTGCTG , write its reported binding signal.
Data returned: 6.47

Data request: Find the measured binding signal of CCGATTAACATCAGGGGATCTACTGATGTTAATCGGGTCTTGATTCGCTTGACGCTGCTG and report it.
Data returned: 5.35

Data request: Answer with reported binding signal of CCGATTAACATCATTGTCCCTTCTGATGTTAATCGGGTCTTGATTCGCTTGACGCTGCTG
Data returned: 3.35

Data request: For the sequence CCGATTAACATCACTTGGGAAACTGATGTTAATCGGGTCTTGATTCGCTTGACGCTGCTG , report binding signal.
Data returned: 2.07
